assay.system: recombinant human FLAP protein (Homo sapiens, UniProt P20292)
Construct: made in house; host or cells: Sf9 insect cells (membrane fraction, 100,000 x g pellet)
Sequence (P20292 1-161): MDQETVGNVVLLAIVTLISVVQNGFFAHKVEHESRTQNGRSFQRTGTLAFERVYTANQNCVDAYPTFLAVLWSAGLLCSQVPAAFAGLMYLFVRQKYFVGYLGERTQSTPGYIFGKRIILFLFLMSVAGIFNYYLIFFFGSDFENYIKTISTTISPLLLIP
method.notes: FLAP binding assay (Scintillation Proximity Assay, displacement of [125I]L-691,831)
assay.context: read-out: Human FLAP SPA Binding (IC50 nM)
quantity.name: IC50 (nM)

Some entries whose results are on file:
CS(=O)(=O)CCNC(=O)c1cccc2c(C3(c4ccc(-c5cnc(N)nc5)cc4)CCC3)c[nH]c12 [Example 3]
1.4
Cc1cc(CN(C)C(=O)c2cccc3c(C4(c5ccc(-c6cnc(N)nc6)cc5)CCC4)c[nH]c23)no1 [Example 17]
3.4
COc1cncc(-c2ccc(C(c3ncc(-c4ccc(CO)nc4)s3)C(C)C)cc2)c1 (stereo not shown) [Example 25]
36
CC(C)C(C)(c1ccc(-c2cnc(N)nc2)cc1)c1c[nH]c2cc(-c3nnc(N)o3)ccc12 (stereo not shown) [Example 65]
0.57
COC(=O)Cn1cc(C2(c3ccc(-c4cnc(N)nc4)cc3)CCC2)c2ccccc21 [Example 123]
7.9
CC(C)(O)Cn1cc(-c2coc([C@](C)(c3ccc(-c4cnc(N)nc4)cc3)C3CC3)n2)cn1 [Example 204]
560
Nc1ncc(-c2ccc(C3(c4c[nH]c5ccccc45)CCCCC3)cc2)cn1 [Example 89]
12
CC(C)C(C)(c1ccc(-c2cnc(N)nc2)cc1)c1c[nH]c2cc(C(=O)N(C)CCO)ccc12 (stereo not shown) [Example 79]
8.5

[1] COc1cccc2[nH]cc(C(C)(c3ccc(-c4cnc(N)nc4)cc3)C(C)C)c12 (stereo not shown) [Example 57]
[2] CC(C)C(C)(c1ccc(-c2cnc(N)nc2)cc1)c1c[nH]c2cc(F)ccc12 (stereo not shown) [Example 60]
[3] COc1cccc2c(C(C)(c3ccc(-c4cnc(N)nc4)cc3)C(C)C)cn(Cc3ccccn3)c12 (stereo not shown) [Example 51]
[4] CC(C)C(C)(c1ccc(-c2cnc(N)nc2)cc1)c1c[nH]c2cc(OC3CCOC3)ccc12 (stereo not shown) [Example 54]
[5] Cn1ccc(C(O)(c2ccc(-c3cnc(N)nc3)cc2)C(C)(C)C)n1 (stereo not shown) [Example 72]
Incoming: Arrange these 5 compounds in increasing order of IC50. Put the labels in the requested order and write them down.
Outgoing: 2, 3, 4, 1, 5

[I] Cc1ccc(-c2cnc(C3(c4ccc(-c5cnc(N)nc5)cc4)CCC3)[nH]2)cn1 [Example 14]
[II] Nc1ncc(-c2ccc(C3(c4c[nH]c5c(C(=O)N6CCS(=O)(=O)CC6)cccc45)CCC3)cc2)cn1 [Example 114]
[III] CC(C)C(C)(c1ccc(-c2cnc(N)nc2)cc1)c1nnc(-c2ccccc2)o1 (stereo not shown) [Example 97]
[IV] Nc1ncc(-c2ccc(C3(c4n[nH]c(-c5cccnc5)n4)CCOCC3)cc2)cn1 [Example 74]
Incoming: List items by IC50 in falling order. Please, when replying, give the labels in the order that was requested.
Outgoing: IV, I, III, II

[P] Nc1ncc(-c2ccc(C3(c4c[nH]c5c(C(=O)N6CCC6)cccc45)CCC3)cc2)cn1 [Example 149]
[Q] Cn1cc(-c2cnc(C3(c4ccc(-c5cnc(N)nc5)cc4)CCC3)s2)cn1 [Example 190]
[R] Nc1ncc(-c2ccc(C3(c4cn(Cc5ccccn5)c5ccccc45)CCOCC3)cc2)cn1 [Example 35]
Incoming: Hey, can you sort those compounds up there by IC50, smallest first? Returns: the labels arranged in the requested order.
Outgoing: P, Q, R

[1] COc1ccc(-c2nnc(C3(c4ccc(-c5cnc(N)nc5)cc4)CCC3)[nH]2)cn1 [Example 144]
[2] Nc1ncc(-c2ccc(C3(c4c[nH]c5c(C(=O)NCCS(N)(=O)=O)cccc45)CCC3)cc2)cn1 [Example 4]
[3] CC(C)(O)Cn1cc(-c2coc(C(C)(c3ccc(-c4cnc(N)nc4)nc3)C3CC3)n2)cn1 (stereo not shown) [Example 209]
Incoming: Order the records by IC50, with each subsequent value no larger than the one before. # answer = labels listed in requested order
Outgoing: 3, 1, 2
(3: 300 nM, 1: 4 nM, 2: 1.2 nM)

[a] Cc1nnc(CN(C)C(=O)c2cccc3c(C4(c5ccc(-c6cnc(N)nc6)cc5)CCC4)c[nH]c23)o1 [Example 11]
[b] CC(C)C(C)(c1ccc(-c2ccc(N)nc2)cc1)c1c[nH]c2cc(-c3nnc(N)o3)ccc12 (stereo not shown) [Example 71]
[c] CN(C)CCn1cc(-c2cc([C@](C)(c3ccc(-c4cnc(N)nc4)cc3)C3CC3)no2)cn1 [Example 30]
[d] CN(C)C(=O)Cn1cc(-c2cnc(C(C)(c3ccc(-c4cnc(N)nc4)cc3)C3CC3)s2)cn1 (stereo not shown) [Example 170]
[e] CC(C)(O)Cn1cc(-c2coc(C(C)(c3ccc(-c4cnc(N)nc4)cc3)C3CC3)n2)cn1 (stereo not shown) [Example 202]
Incoming: Order the 5 compounds from highest to lowest IC50. Labels, ranked as asked.
Outgoing: c, e, d, a, b
(c: 330 nM, e: 69 nM, d: 10 nM, a: 3.3 nM, b: 0.72 nM)

[1] CN(C)C(=O)Cn1cc(-c2cnc(C3(c4ccc(-c5cnc(N)nc5)cc4)CCC3)s2)cn1 [Example 180]
[2] CN(CCO)C(=O)c1cccc2c(C3(c4ccc(-c5cnc(N)nc5)cc4)CCC3)c[nH]c12 [Example 115]
Incoming: I'm curious whether 1 or 2 has the smaller IC50 number. Which is it? Give the label of your selection.
Outgoing: 2
(2: 2.6 nM, 1: 8.9 nM)

* * *

assay.system: recombinant human FLAP protein (Homo sapiens)
Construct: made in house; host or cells: Sf9 insect cells (membrane fraction, 100,000 x g pellet)
method.notes: FLAP binding assay (Scintillation Proximity Assay, displacement of [125I]L-691,831)
assay.context: read-out: Human FLAP SPA Binding (IC50 nM)
quantity.name: IC50 (nM)

Worked examples, 10 molecules total:
Nc1ncc(-c2ccc(C3(c4nnc(-c5cccnc5)o4)CCC3)cc2)cn1
120
CN(C)C(=O)Cn1cc(-c2coc(C(C)(c3ccc(-c4cnc(N)nc4)cc3)C3CC3)n2)cn1 (centres unmarked)
40
Nc1ncc(-c2ccc(C3(c4ncc(-c5cn[nH]c5)s4)CCC3)cc2)cn1
2.9
CC(C)C(C)(c1ccc(-c2cnc(N)nc2)cc1)c1cn(C)c2ncccc12 (centres unmarked)
3.3
Nc1ncc(-c2ccc(C3(c4cn(CCOCCO)c5ccccc45)CCC3)cc2)cn1
4.7
CC(C)C(C)(c1ccc(-c2cnc(N)nc2)cc1)c1n[nH]c(-c2ccccc2)n1 (centres unmarked)
1.4
Nc1ncc(-c2ccc(C3(c4c[nH]c5c(C(=O)NC6CCS(=O)(=O)C6)cccc45)CCC3)cc2)cn1 (centres unmarked)
0.72
COCC(C)(c1ccc(-c2cnc(N)nc2)cc1)c1cn(C)c2ncccc12 (centres unmarked)
160
Nc1ncc(-c2ccc(C3(c4c[nH]c5ccccc45)CCC3)cc2)cn1
5.1
Nc1ncc(-c2ccc(C3(c4c[nH]c5ccccc45)CCC3)cc2)cc1CO
1.6

[P] CC(C)C(C)(c1ccc(-c2cnc(N)nc2)cc1)c1c[nH]c2c(F)cccc12 (centres unmarked)
[Q] Cc1ccc(-c2cc(C3(c4ccc(-c5cnc(N)nc5)cc4)CCC3)n(C)n2)cn1
Incoming: Param pair: P , Q . Output: the one whose IC50 is numerically greater. Return value: the label identifying the chosen record.
Outgoing: Q
(Q: 510 nM, P: 0.65 nM)

* * *

assay.system: recombinant human FLAP protein (Homo sapiens)
Construct: made in house; host or cells: Sf9 insect cells (membrane fraction, 100,000 x g pellet)
Sequence (P20292 1-161): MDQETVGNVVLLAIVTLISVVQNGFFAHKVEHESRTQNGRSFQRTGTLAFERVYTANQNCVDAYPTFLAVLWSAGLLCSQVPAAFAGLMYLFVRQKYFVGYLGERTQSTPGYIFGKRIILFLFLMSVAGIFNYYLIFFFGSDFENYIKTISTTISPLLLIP
method.notes: FLAP binding assay (Scintillation Proximity Assay, displacement of [125I]L-691,831)
assay.context: read-out: Human FLAP SPA Binding (IC50 nM)
quantity.name: IC50 (nM)

COc1cncc(-c2ccc(C(c3ncc(-c4cnc(N)nc4)s3)C(C)C)cc2)c1 (centres unmarked)
18
CC(C)C(C)(c1ccc(-c2cnc(N)nc2)cc1)c1c[nH]c2cc(F)c(F)cc12 (centres unmarked)
3
Cn1nc(C(c2ccc(-c3cnc(N)nc3)cc2)C(C)(C)C)c2ccccc21 (centres unmarked)
21
CC(C)C(C)(c1ccc(-c2cnc(N)nc2)cc1)c1cc2c(F)cccc2[nH]1 (centres unmarked)
18
Cc1ccc(-c2csc(C3(c4ccc(-c5cnc(N)nc5)cc4)CCC3)n2)cn1
16

[a] CC(C)C(C)(c1ccc(-c2cnc(N)nc2)cc1)c1c[nH]c2c(-c3nnc(N)o3)cccc12 (centres unmarked)
[b] CC(C)C(C)(c1ccc(-c2cnc(N)nc2)cc1)c1c[nH]c2cc(C(=O)N3CC(O)C3)ccc12 (centres unmarked)
Incoming: # argmax over IC50 for candidates a and b Answer by quoting the chosen item's label.
Outgoing: b
(b: 1.6 nM, a: 1.1 nM)

[a] Nc1ncc(-c2ccc(C3(c4nnc(-c5ccccc5)[nH]4)CCOCC3)cc2)cn1
[b] COc1cncc(-c2ccc(C(C)(c3cn(Cc4ccccn4)c4ccccc34)C(C)C)cc2)c1 (centres unmarked)
Incoming: Field: entry with larger IC50 (options a / b ). Field: selected label. Fill in the label of the entry you choose.
Outgoing: a
(a: 120 nM, b: 20 nM)

[P] CC(C)(O)Cn1cc(-c2cnc(C(C)(c3ccc(-c4cnc(N)nc4)nc3)C3CC3)s2)cn1 (centres unmarked)
[Q] Nc1ncc(-c2ccc(C3(c4c[nH]c5ccc(F)cc45)CCC3)cc2)cn1
[R] CC(C)C(C)(c1ccc(OCc2ccccn2)cc1)c1cn(C)c2cc(C(N)=O)ccc12 (centres unmarked)
[S] CN(C)C(=O)c1cccc2c(C3(c4ccc(-c5cnc(N)nc5)cc4)CCC3)c[nH]c12
[T] Nc1ncc(-c2ccc(C3(c4nc5ccccc5[nH]4)CCC3)cc2)cn1
Incoming: Hey, quick one: sort these by IC50, largest value first please. # the answer lists labels in the order requested
Outgoing: P, T, Q, S, R
(P: 130 nM, T: 27 nM, Q: 5 nM, S: 2.1 nM, R: 1.4 nM)

[I] Cc1[nH]c2ccccc2c1C(C)(c1ccc(-c2cnc(N)nc2)cc1)C(C)C (centres unmarked)
[II] Nc1ncc(-c2ccc(C3(c4c[nH]c5c(=O)[nH]ccc45)CCC3)cc2)cn1
[III] Nc1ncc(-c2ccc(C3(c4nnc(-c5ccc(F)cc5)[nH]4)CCC3)cn2)cn1
Incoming: Rank items: key IC50, increasing. Answer by listing the labels in the order asked for.
Outgoing: I, II, III
(I: 1.4 nM, II: 2.5 nM, III: 12 nM)
